# IC50 per record follows
Molecular target: UniProt:Q92793
Sequence (Q92793 whole entry): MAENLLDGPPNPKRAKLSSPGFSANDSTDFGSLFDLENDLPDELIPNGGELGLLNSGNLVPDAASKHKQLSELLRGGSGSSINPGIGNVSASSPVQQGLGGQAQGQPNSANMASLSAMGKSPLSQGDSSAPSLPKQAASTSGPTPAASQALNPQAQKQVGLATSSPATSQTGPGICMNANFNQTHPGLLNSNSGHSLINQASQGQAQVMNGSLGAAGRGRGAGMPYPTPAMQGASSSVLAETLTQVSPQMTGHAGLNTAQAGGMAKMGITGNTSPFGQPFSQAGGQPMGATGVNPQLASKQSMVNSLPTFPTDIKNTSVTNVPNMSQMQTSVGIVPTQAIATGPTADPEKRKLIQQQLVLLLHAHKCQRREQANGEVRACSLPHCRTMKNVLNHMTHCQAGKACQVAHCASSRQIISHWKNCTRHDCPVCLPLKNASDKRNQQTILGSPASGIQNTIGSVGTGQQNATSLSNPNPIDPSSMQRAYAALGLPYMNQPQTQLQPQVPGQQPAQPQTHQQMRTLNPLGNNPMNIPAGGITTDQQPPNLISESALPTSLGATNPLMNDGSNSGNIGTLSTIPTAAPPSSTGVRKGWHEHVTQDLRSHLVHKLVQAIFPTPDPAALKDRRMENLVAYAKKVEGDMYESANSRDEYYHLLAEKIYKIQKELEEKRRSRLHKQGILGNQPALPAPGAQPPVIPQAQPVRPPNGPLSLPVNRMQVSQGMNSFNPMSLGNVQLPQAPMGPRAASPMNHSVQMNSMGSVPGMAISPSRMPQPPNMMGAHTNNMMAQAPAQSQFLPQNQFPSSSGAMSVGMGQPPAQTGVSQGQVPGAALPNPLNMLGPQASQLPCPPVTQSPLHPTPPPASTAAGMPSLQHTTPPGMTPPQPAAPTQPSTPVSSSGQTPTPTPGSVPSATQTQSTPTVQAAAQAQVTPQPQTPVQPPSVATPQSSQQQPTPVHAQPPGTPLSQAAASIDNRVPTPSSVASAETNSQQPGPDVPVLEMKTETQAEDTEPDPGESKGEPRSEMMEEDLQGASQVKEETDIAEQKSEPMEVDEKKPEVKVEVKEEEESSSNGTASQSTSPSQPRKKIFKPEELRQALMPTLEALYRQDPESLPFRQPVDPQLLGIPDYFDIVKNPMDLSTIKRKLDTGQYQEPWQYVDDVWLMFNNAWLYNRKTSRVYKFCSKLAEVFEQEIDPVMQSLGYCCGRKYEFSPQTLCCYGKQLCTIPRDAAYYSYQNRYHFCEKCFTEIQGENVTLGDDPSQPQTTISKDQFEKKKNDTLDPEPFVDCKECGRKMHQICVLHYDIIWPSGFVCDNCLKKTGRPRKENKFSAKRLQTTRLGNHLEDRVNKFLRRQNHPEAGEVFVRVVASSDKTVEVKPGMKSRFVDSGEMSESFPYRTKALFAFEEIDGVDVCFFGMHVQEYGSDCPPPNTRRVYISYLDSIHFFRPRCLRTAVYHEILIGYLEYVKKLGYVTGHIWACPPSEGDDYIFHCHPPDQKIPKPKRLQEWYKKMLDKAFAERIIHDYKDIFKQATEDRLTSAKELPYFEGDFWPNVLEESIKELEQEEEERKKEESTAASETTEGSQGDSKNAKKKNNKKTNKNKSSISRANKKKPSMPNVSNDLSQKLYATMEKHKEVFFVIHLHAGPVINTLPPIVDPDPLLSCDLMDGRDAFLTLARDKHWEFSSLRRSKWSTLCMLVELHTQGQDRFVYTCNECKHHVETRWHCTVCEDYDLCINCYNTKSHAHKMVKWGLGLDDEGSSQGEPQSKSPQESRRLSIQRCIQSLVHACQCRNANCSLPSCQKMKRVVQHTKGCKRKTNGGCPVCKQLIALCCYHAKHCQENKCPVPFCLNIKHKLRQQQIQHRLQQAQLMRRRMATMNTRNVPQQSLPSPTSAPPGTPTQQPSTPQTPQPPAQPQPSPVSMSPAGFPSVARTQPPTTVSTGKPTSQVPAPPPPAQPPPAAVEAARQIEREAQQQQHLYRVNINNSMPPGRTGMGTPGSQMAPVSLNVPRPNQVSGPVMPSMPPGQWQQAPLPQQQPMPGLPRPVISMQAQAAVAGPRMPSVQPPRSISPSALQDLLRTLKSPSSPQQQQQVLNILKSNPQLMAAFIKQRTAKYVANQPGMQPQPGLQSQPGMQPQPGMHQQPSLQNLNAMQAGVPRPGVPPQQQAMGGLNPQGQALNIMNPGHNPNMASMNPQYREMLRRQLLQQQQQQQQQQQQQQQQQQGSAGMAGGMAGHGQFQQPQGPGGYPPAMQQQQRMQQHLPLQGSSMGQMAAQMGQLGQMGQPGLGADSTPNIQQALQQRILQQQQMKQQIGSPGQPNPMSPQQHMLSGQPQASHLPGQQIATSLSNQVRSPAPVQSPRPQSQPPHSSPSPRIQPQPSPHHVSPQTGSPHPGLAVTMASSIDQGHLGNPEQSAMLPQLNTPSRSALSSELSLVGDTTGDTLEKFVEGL
Experiment: CBP catalytic activity inhibition
Settings: means ± S.D., n = 3

Examples with answers:
CC1=NN(c2ccc(C(=O)O)cc2)C(=O)/C1=C\c1ccc(-c2cc(C)c(C)cc2[N+](=O)[O-])o1 [Compound C646, C646, reference compound]    210 nM
CC1=NN(c2ccc(C(=O)NCCOCCOCCNC(=O)COc3cccc4c3C(=O)N(C3CCC(=O)NC3=O)C4=O)cc2)C(=O)/C1=C\c1ccc(-c2cc(C)c(C)cc2[N+](=O)[O-])o1 (stereo not drawn)    600 to 900 nM

Consider now this further molecule.
Recall the reported IC50 of CC1=NN(c2ccc(C(=O)NCCCOCCOCCOCCCNC(=O)COc3cccc4c3C(=O)N(C3CCC(=O)NC3=O)C4=O)cc2)C(=O)/C1=C\c1ccc(-c2cc(C)c(C)cc2[N+](=O)[O-])o1 (stereo not drawn) when tested on UniProt:Q92793.
600 to 900 nM
